Molecular target: T1, human collagen type I (human, UniProt P02452 162-1218; P08123 80-1119)
T1 construct: biotinylated collagen I in the phage ELISA; also called dried human collagen; Collagen I
T1 sequence (P02452 162-1218 limits assumed, chain 1 of 2): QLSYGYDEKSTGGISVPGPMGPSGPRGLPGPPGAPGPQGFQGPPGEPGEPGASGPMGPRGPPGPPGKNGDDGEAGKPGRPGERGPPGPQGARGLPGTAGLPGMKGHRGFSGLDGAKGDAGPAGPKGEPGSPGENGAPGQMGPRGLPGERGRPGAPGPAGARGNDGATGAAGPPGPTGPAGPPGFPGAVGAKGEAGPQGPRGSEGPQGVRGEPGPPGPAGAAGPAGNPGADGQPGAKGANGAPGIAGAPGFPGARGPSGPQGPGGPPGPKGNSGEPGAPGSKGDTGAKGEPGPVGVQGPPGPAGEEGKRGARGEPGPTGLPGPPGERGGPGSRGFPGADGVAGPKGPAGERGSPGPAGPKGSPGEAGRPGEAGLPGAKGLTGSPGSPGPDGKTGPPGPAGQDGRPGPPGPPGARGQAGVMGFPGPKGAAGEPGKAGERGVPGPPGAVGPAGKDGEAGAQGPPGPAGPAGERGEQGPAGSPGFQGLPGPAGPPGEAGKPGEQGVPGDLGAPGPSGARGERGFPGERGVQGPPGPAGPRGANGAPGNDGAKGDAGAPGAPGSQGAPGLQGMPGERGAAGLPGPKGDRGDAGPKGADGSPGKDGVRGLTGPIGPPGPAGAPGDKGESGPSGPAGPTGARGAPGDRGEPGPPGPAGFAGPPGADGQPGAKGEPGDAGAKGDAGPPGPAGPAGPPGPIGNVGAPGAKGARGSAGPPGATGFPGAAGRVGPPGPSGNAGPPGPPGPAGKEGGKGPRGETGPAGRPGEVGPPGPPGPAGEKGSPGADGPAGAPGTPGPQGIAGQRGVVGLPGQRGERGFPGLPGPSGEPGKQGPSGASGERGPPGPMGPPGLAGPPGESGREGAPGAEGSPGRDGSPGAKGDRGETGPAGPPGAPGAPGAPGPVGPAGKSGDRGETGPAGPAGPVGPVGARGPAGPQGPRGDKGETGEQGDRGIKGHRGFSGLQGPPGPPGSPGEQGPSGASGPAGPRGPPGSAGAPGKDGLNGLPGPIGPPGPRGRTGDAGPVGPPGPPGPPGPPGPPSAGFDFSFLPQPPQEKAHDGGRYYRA
T1 sequence (P08123 80-1119 limits assumed, chain 2 of 2): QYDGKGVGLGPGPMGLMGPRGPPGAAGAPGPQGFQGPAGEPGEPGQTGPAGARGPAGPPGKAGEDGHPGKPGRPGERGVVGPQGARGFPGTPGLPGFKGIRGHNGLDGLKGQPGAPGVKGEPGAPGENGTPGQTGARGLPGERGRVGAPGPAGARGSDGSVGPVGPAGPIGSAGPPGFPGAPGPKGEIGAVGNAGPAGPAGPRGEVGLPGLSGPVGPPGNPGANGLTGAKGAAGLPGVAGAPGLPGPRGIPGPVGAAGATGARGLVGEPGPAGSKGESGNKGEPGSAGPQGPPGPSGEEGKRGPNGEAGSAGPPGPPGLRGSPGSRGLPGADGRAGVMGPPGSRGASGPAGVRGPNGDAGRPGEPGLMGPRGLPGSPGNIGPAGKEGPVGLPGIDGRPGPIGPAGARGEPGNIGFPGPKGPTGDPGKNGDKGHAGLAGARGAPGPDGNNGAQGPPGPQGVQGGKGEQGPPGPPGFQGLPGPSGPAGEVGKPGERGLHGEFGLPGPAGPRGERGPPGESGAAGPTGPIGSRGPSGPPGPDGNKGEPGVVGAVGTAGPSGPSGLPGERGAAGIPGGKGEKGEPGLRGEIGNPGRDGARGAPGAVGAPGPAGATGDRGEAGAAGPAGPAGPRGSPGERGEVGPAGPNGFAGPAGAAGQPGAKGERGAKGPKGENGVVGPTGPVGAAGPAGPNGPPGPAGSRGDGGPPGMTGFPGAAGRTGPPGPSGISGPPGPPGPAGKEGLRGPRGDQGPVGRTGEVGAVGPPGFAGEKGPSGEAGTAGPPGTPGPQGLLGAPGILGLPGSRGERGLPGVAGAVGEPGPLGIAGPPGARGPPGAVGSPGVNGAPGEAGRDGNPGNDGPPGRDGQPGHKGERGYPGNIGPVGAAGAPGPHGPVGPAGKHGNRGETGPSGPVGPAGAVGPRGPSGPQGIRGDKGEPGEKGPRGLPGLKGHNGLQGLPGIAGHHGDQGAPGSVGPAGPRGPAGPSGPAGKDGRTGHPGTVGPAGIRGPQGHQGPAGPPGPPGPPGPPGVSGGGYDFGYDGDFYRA
Assay: dried collagen assay, 5 uM peptide
Bridge positions count the residues as written; N and C are the ends. Ends that are not written are not given here.
Quantity kind: Dried Human Collagen Binding (%)

Solved cases below.
- Binder: "SWHCFLENHHWMCSDH (disulfide 4-13 (inferred), also called TN-10 peptide) [SEQ ID NO: 68]"
  Units label: "%"
  Dried Human Collagen Binding: 5
- Binder: "ERNCVLNDFRWTCGGD (disulfide 4-13 (inferred), also called TN-10 peptide) [SEQ ID NO: 75]"
  Units label: "%"
  Dried Human Collagen Binding: 10
- Binder: "RWSCVLDADGWVCSDN (disulfide 4-13 (inferred), also called TN-10 peptide) [SEQ ID NO: 66]"
  Units label: "%"
  Dried Human Collagen Binding: 6
- Binder: "SWYCNNGSYGQWHCEHR (disulfide 4-14 (inferred), also called TN-11 peptide) [SEQ ID NO: 80]"
  Units label: "%"
  Dried Human Collagen Binding: 6
- Binder: "WQVCADSPGVITYCYTY (disulfide 4-14 (inferred), also called TN-11 peptide) [SEQ ID NO: 98]"
  Units label: "%"
  Dried Human Collagen Binding: 5

A. GWQCQGTDSLDWKCLYM (disulfide 4-14 (inferred), also called TN-11 peptide) [SEQ ID NO: 77]
B. GWSCHSMDMQWHCDFS (disulfide 4-13 (inferred), also called TN-10 peptide) [SEQ ID NO: 67]
(Q) Exercise: compare A and B ; which one has the greater Dried Human Collagen Binding? # reply format: chosen label
(A) A
